Quick list: selectivity ratio per entry.
- Test Summary: Therapeutic index, ratio of CC50 for cytotoxicity against HEK293T cells to IC50 for antiviral activity against human immunodeficiency virus expressed in HEK293T cells
- Type: toxicity, cell-based
- Applied Conditions: read-out: Ratio CC50/IC50
Reported Property: selectivity ratio

INSERT INTO measurements (compound_smiles, relation_symbol, test_result) VALUES
  ('CCCCCCCCCCCCCCCCSCCCOP(=O)(O)CO[C@H](C)Cn1cnc2c(N)ncnc21.N', '=', 4980),
  ('C[C@H](Cn1cnc2c(N)ncnc21)OCP(=O)(O)OCCCCCCCCCCCCCCCCCCCC(F)(F)F.N', '=', 603),
  ('CCCCCCCCCCCCCCCCCCCCOP(=O)(O)CO[C@H](C)Cn1cnc2c(N)ncnc21.N', '=', 104),
  ('CCCCCCCCCCCCCCCOP(=O)(O)CO[C@H](C)Cn1cnc2c(N)ncnc21.N', '>', 49),
  ('C[C@H](Cn1cnc2c(N)ncnc21)OCP(=O)(O)OCCCCCCCCCCCCCCCCC#C[Si](C)(C)C.N', '=', 792),
  ('C#CCCCCCCCCCCCCCOP(=O)(O)CO[C@H](C)Cn1cnc2c(N)ncnc21.N', '>', 3);

###

- Tested on: HEK-293T
- Test Summary: Cytotoxicity against HEK293T cells assessed as reduction in cell viability in absence of HSA measured after 48 hrs by CellTiter 96 Aqueous One Solution reagent based cell proliferation assay
- Applied Conditions: human
Reported Property: CC50

INSERT INTO results (compound, test_result) VALUES
  ('C[C@H](Cn1cnc2c(N)ncnc21)OCP(=O)(O)O [TENOFOVIR ANHYDROUS]', '> 100 µM');

###

- Test Summary: Half life in HBV patients at 50 mg, po qa administered for 28 days
- Format: ADME, organism-based
- Applied Conditions: human, in vivo, time 28 day
Reported Property: half-life (h)

INSERT INTO assay_data (compound_smiles, test_result) VALUES
  ('CCCCCCCCCCCCCCCCOCCCOP(=O)(O)CO[C@H](C)Cn1cnc2c(N)ncnc21.N', 1.5);

###

- Test Summary: Prodrug conversion in C57BL/6 mouse liver assessed as Cmax of TFV metabolite at 10 mg/kg, po measured up to 24 hrs by LC-MS/MS analysis
- Type: ADME, organism-based
- Set-up: dose 10 mg/kg, time < 24 hrs, route po
- Applied Conditions: in vivo
Reported Property: Cmax

INSERT INTO assay_data (compound_smiles, test_result) VALUES
  ('CCCCCCCCCCCCCCCCOCCCOP(=O)(O)CO[C@H](C)Cn1cnc2c(N)ncnc21.N', '1460 ng/mL'),
  ('C[C@H](Cn1cnc2c(N)ncnc21)OCP(=O)(O)OCCCOCCCCCCCCCCCCC#C[Si](C)(C)C.N', '671 ng/mL'),
  ('C[C@H](Cn1cnc2c(N)ncnc21)OCP(=O)(O)OCCCOCCCCCCCCCCCCCCCC(F)(F)F.N', '1120 ng/mL'),
  ('C[C@H](Cn1cnc2c(N)ncnc21)OCP(=O)(O)OCCCOCCCCCCCCCCCCCC#CC(F)(F)F.N', '1380 ng/mL');

###

- Test Summary: Metabolic stability in human liver microsomes assessed as half life at 3 uM measured up to 30 min in presence of NADPH by LC-MS/MS analysis
- Type: ADME, Microsome
- Applied Conditions: 0.5 h
Quick list: t1/2 per entry.
Reported Property: t1/2

INSERT INTO measurements (compound_smiles, reported_property, test_result) VALUES
  ('C#CCCCCCCCCCCCCCCCCOP(=O)(O)CO[C@H](C)Cn1cnc2c(N)ncnc21.N', 't1/2', '> 2 h'),
  ('C#CCCCCCCCCCCCCCOP(=O)(O)CO[C@H](C)Cn1cnc2c(N)ncnc21.N', 't1/2', '1.57 h'),
  ('C[C@H](Cn1cnc2c(N)ncnc21)OCP(=O)(O)OCCCOCCCCCCCCCCCCCC#CC(F)(F)F.N', 't1/2', '> 2 h'),
  ('CCCCCCCCCCCCCCCOP(=O)(O)CO[C@H](C)Cn1cnc2c(N)ncnc21.N', 't1/2', '0.217 h'),
  ('CCCCCCCCCCCCCCCCOCCCOP(=O)(O)CO[C@H](C)Cn1cnc2c(N)ncnc21.N', 't1/2', '0.7 h'),
  ('C[C@H](Cn1cnc2c(N)ncnc21)OCP(=O)(O)OCCCOCCCCCCCCCCCCCCCC(F)(F)F.N', 't1/2', '> 2 h'),
  ('CCCCCCCCCCCCCCCCSCCCOP(=O)(O)CO[C@H](C)Cn1cnc2c(N)ncnc21.N', 't1/2', '0.7 h'),
  ('C[C@H](Cn1cnc2c(N)ncnc21)OCP(=O)(O)OCCCCCCCCCCCCCCCCC#C[Si](C)(C)C.N', 't1/2', '> 2 h'),
  ('C[C@H](Cn1cnc2c(N)ncnc21)OCP(=O)(O)OCCCCCCCCCCCCCCCCCC#CC(F)(F)F.N', 't1/2', '> 2 h'),
  ('C#CCCCCCCCCCCCCCCOCCCOP(=O)(O)CO[C@H](C)Cn1cnc2c(N)ncnc21.N', 't1/2', '> 2 h'),
  ('CCCCCCCCCCCCCCCCCCOP(=O)(O)CO[C@H](C)Cn1cnc2c(N)ncnc21.N', 't1/2', '0.217 h'),
  ('C[C@H](Cn1cnc2c(N)ncnc21)OCP(=O)(O)OCCCCCCCCCCCCCCCCCCCC(F)(F)F.N', 't1/2', '> 2 h'),
  ('C#CCCCCCCCCCCCCCCCCCCOP(=O)(O)CO[C@H](C)Cn1cnc2c(N)ncnc21.N', 't1/2', '> 2 h'),
  ('C[C@H](Cn1cnc2c(N)ncnc21)OCP(=O)(O)OCCCOCCCCCCCCCCCCC#C[Si](C)(C)C.N', 't1/2', '> 2 h');

###

- Test Summary: Therapeutic index, ratio of CC50 for cytotoxicity against HEK293T cells in absence of HSA to IC50 for antiviral activity against human immunodeficiency virus expressed in HEK293T cells in absence of HSA
- Assay type: toxicity, cell-based
- Applied Conditions: read-out: Ratio CC50/IC50
Reported Property: selectivity ratio

INSERT INTO measurements (molecule, reported_property, test_result) VALUES
  ('C[C@H](Cn1cnc2c(N)ncnc21)OCP(=O)(O)O [TENOFOVIR ANHYDROUS]', 'selectivity ratio', '> 49');

###

- Test Summary: Prodrug conversion in C57BL/6 mouse plasma assessed as Tmax of TFV metabolite at 10 mg/kg, po measured up to 24 hrs by LC-MS/MS analysis
- Assay type: ADME, organism-based
- Applied Conditions: in vivo
Reported Property: Tmax (h)

INSERT INTO measurements (compound_smiles, reported_property, test_result) VALUES
  ('C[C@H](Cn1cnc2c(N)ncnc21)OCP(=O)(O)OCCCOCCCCCCCCCCCCC#C[Si](C)(C)C.N', 'Tmax', 12),
  ('C[C@H](Cn1cnc2c(N)ncnc21)OCP(=O)(O)OCCCOCCCCCCCCCCCCCC#CC(F)(F)F.N', 'Tmax', 1),
  ('C[C@H](Cn1cnc2c(N)ncnc21)OCP(=O)(O)OCCCOCCCCCCCCCCCCCCCC(F)(F)F.N', 'Tmax', 8),
  ('CCCCCCCCCCCCCCCCOCCCOP(=O)(O)CO[C@H](C)Cn1cnc2c(N)ncnc21.N', 'Tmax', 2);

###

- Test Summary: Therapeutic index, ratio of CC50 for cytotoxicity against HEK293T cells to IC50 for antiviral activity against human immunodeficiency virus expressed in HEK293T cells
- Type: toxicity, cell-based
- Applied Conditions: read-out: Ratio CC50/IC50
Quick list: selectivity ratio per entry.
Reported Property: selectivity ratio

INSERT INTO results (molecule, relation_symbol, test_result) VALUES
  ('CCCCCCCCCCCCCCCCOCCCOP(=O)(O)CO[C@H](C)Cn1cnc2c(N)ncnc21.N', '=', 5420),
  ('C[C@H](Cn1cnc2c(N)ncnc21)OCP(=O)(O)OCCCOCCCCCCCCCCCCCCCC(F)(F)F.N', '>', 2040),
  ('C#CCCCCCCCCCCCCCCOCCCOP(=O)(O)CO[C@H](C)Cn1cnc2c(N)ncnc21.N', '>', 758),
  ('C[C@H](Cn1cnc2c(N)ncnc21)OCP(=O)(O)O [TENOFOVIR ANHYDROUS]', '=', 22),
  ('C#CCCCCCCCCCCCCCCCCCCOP(=O)(O)CO[C@H](C)Cn1cnc2c(N)ncnc21.N', '=', 84),
  ('C[C@H](Cn1cnc2c(N)ncnc21)OCP(=O)(O)OCCCOCCCCCCCCCCCCCC#CC(F)(F)F.N', '>', 4350),
  ('CCCCCCCCCCCCCCCCCCOP(=O)(O)CO[C@H](C)Cn1cnc2c(N)ncnc21.N', '=', 895),
  ('C[C@H](Cn1cnc2c(N)ncnc21)OCP(=O)(O)OCCCCCCCCCCCCCCCCCC#CC(F)(F)F.N', '=', 423),
  ('C#CCCCCCCCCCCCCCCCCOP(=O)(O)CO[C@H](C)Cn1cnc2c(N)ncnc21.N', '>', 49);
